biological target: Bile acid receptor (Homo sapiens) (UniProt Q96RI1); assay: Agonist activity at C-terminal Gal4-tagged human FXR (187 to 472 residues) expressed in HEK-293 cells co-expressing pFRluc by mammalian one hybrid assay relative to GW4064; format: cell-based; details: HEK293
Sequence (Q96RI1 whole entry, the tested form may be a part): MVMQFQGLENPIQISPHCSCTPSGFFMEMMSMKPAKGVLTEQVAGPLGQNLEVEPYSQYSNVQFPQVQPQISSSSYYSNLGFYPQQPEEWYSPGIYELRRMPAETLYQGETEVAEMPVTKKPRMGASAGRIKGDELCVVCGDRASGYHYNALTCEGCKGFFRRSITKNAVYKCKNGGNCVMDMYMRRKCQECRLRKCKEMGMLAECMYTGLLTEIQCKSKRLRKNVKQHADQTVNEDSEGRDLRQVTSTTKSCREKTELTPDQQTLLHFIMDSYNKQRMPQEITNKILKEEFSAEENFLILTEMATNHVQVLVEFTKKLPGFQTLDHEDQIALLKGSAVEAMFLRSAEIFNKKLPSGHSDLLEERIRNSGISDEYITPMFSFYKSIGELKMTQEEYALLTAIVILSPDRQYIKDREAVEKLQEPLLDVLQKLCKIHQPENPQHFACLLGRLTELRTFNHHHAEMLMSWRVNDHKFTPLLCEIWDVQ
Output schema: class label derived from Efficacy. Mapping: Low = under 70%, Mid = from 70% up to 90%, High = 90% and over

[
  {
    "MOLECULE": "O=C(O)c1cccc([C@@H]2C[C@H]2c2ccc(OCc3c(-c4c(Cl)cccc4Cl)noc3C3CC3)cc2Cl)c1",
    "TARGET UNDER TEST": "Bile acid receptor (Homo sapiens) (UniProt Q96RI1)",
    "CLASS NAME": "High"
  },
  {
    "MOLECULE": "O=C(O)c1cncc(C2CC2c2ccc(OCc3c(-c4c(Cl)cccc4Cl)noc3C3CC3)cc2Cl)c1 (centres undefined)",
    "TARGET UNDER TEST": "Bile acid receptor (Homo sapiens) (UniProt Q96RI1)",
    "CLASS NAME": "Mid"
  },
  {
    "MOLECULE": "CC(C)n1nc(C(=O)O)cc1[C@H]1C[C@](O)(c2ccc(OCc3c(-c4c(Cl)cccc4Cl)noc3C3CC3)cc2Cl)C1",
    "TARGET UNDER TEST": "Bile acid receptor (Homo sapiens) (UniProt Q96RI1)",
    "CLASS NAME": "Mid"
  },
  {
    "MOLECULE": "O=C(O)c1ccc(C2CC2c2ccc(OCc3c(-c4c(Cl)cccc4Cl)noc3C3CC3)cc2Cl)cc1 (racemic)",
    "TARGET UNDER TEST": "Bile acid receptor (Homo sapiens) (UniProt Q96RI1)",
    "CLASS NAME": "Mid"
  },
  {
    "MOLECULE": "Clc1cc(OCc2c(-c3c(Cl)cccc3Cl)noc2C2CC2)ccc1C1CC1c1ccc(-c2nnn[nH]2)nc1 (centres undefined)",
    "TARGET UNDER TEST": "Bile acid receptor (Homo sapiens) (UniProt Q96RI1)",
    "CLASS NAME": "Mid"
  },
  {
    "MOLECULE": "O=C(O)c1cccc(C2CC2c2ccc(OCc3c(-c4c(Cl)cccc4Cl)noc3C3CC3)cc2Cl)c1 (racemic)",
    "TARGET UNDER TEST": "Bile acid receptor (Homo sapiens) (UniProt Q96RI1)",
    "CLASS NAME": "Mid"
  },
  {
    "MOLECULE": "O=C(NCCS(=O)(=O)O)c1ccc(C2CC2c2ccc(OCc3c(-c4c(Cl)cccc4Cl)noc3C3CC3)cc2Cl)cc1 (racemic)",
    "TARGET UNDER TEST": "Bile acid receptor (Homo sapiens) (UniProt Q96RI1)",
    "CLASS NAME": "Low"
  },
  {
    "MOLECULE": "Cn1nc(C(=O)O)c2ccc(C3CC3c3ccc(OCc4c(-c5c(Cl)cccc5Cl)noc4C4CC4)cc3Cl)cc21 (racemic)",
    "TARGET UNDER TEST": "Bile acid receptor (Homo sapiens) (UniProt Q96RI1)",
    "CLASS NAME": "Mid"
  },
  {
    "MOLECULE": "O=C(O)c1cccc(N2CC(O)(c3ccc(OCc4c(-c5c(Cl)cccc5Cl)noc4C4CC4)cc3Cl)C2)c1",
    "TARGET UNDER TEST": "Bile acid receptor (Homo sapiens) (UniProt Q96RI1)",
    "CLASS NAME": "High"
  },
  {
    "MOLECULE": "O=C(O)CNC(=O)c1ccc(C2CC2c2ccc(OCc3c(-c4c(Cl)cccc4Cl)noc3C3CC3)cc2Cl)cc1 (racemic)",
    "TARGET UNDER TEST": "Bile acid receptor (Homo sapiens) (UniProt Q96RI1)",
    "CLASS NAME": "Low"
  },
  {
    "MOLECULE": "CS(=O)(=O)NC(=O)c1ccc([C@@H]2C[C@H]2c2ccc(OCc3c(-c4c(Cl)cccc4Cl)noc3C3CC3)cc2Cl)cc1",
    "TARGET UNDER TEST": "Bile acid receptor (Homo sapiens) (UniProt Q96RI1)",
    "CLASS NAME": "Mid"
  },
  {
    "MOLECULE": "CO[C@]1(c2ccc(OCc3c(-c4c(Cl)cccc4Cl)noc3C3CC3)cc2Cl)C[C@H](c2cccc(C(=O)O)c2)C1",
    "TARGET UNDER TEST": "Bile acid receptor (Homo sapiens) (UniProt Q96RI1)",
    "CLASS NAME": "Mid"
  },
  {
    "MOLECULE": "O=C(O)c1cccc([C@H]2C[C@](O)(c3ccc(OCc4c(-c5c(Cl)cccc5Cl)noc4C4CC4)cc3Cl)C2)c1",
    "TARGET UNDER TEST": "Bile acid receptor (Homo sapiens) (UniProt Q96RI1)",
    "CLASS NAME": "Mid"
  }
]
